Source listed as patent US10286079B2.

- TESTED TARGET: HSA (Homo sapiens, UniProt P02768)
- Sequence (P02768 25-609): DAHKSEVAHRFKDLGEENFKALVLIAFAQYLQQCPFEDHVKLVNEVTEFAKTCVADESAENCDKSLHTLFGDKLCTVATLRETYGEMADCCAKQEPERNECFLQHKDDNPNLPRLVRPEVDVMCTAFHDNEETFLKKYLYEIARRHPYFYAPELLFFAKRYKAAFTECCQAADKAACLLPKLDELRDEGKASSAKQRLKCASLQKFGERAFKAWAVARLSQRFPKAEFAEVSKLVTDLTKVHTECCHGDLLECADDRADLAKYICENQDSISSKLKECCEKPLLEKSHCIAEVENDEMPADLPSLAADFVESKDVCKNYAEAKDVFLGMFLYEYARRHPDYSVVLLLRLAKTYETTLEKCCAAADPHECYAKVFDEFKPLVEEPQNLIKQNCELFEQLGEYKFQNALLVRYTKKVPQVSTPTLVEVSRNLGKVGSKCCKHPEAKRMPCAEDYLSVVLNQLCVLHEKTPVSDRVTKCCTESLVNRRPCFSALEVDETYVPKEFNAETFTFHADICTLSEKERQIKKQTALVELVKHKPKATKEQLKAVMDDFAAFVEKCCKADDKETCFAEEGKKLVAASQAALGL
- TEST NAME: in vitro
- Type: in vitro ADME
- CONDITION DESCRIPTION: HSA (human serum albumin), concentration 1.5 μM, read-out: % bound to protein (converted)
Provide the reported fraction unbound at 1.5 μM of each item.
One number for each entry.

COMPOUND: CC(=O)O[C@H]1C(=O)[C@@]2(C)[C@H]([C@H](OC(=O)c3ccccc3)[C@]3(O)C[C@H](OC(=O)[C@H](OC(=O)CCCCCCCCCCCCCCCCC(=O)O)[C@@H](NC(=O)c4ccccc4)c4ccccc4)C(C)=C1C3(C)C)[C@]1(OC(C)=O)CO[C@@H]1C[C@@H]2O [PTX-FA18, Paclitaxel-C18 Diacid Conjugate]
TESTED TARGET: HSA (Homo sapiens, UniProt P02768)
fraction unbound at 1.5 μM: 0.005

# evaluate next
Kindly note the recorded fraction unbound at 1.5 μM for O=C(O)CCCCCCCCCCCCCCCCC(=O)O , which is 0.009
